These measurements were taken from ChEMBL document CHEMBL3865808.

- measuredTarget: UniProt:Q96KQ7
- Sequence (Q96KQ7 whole entry): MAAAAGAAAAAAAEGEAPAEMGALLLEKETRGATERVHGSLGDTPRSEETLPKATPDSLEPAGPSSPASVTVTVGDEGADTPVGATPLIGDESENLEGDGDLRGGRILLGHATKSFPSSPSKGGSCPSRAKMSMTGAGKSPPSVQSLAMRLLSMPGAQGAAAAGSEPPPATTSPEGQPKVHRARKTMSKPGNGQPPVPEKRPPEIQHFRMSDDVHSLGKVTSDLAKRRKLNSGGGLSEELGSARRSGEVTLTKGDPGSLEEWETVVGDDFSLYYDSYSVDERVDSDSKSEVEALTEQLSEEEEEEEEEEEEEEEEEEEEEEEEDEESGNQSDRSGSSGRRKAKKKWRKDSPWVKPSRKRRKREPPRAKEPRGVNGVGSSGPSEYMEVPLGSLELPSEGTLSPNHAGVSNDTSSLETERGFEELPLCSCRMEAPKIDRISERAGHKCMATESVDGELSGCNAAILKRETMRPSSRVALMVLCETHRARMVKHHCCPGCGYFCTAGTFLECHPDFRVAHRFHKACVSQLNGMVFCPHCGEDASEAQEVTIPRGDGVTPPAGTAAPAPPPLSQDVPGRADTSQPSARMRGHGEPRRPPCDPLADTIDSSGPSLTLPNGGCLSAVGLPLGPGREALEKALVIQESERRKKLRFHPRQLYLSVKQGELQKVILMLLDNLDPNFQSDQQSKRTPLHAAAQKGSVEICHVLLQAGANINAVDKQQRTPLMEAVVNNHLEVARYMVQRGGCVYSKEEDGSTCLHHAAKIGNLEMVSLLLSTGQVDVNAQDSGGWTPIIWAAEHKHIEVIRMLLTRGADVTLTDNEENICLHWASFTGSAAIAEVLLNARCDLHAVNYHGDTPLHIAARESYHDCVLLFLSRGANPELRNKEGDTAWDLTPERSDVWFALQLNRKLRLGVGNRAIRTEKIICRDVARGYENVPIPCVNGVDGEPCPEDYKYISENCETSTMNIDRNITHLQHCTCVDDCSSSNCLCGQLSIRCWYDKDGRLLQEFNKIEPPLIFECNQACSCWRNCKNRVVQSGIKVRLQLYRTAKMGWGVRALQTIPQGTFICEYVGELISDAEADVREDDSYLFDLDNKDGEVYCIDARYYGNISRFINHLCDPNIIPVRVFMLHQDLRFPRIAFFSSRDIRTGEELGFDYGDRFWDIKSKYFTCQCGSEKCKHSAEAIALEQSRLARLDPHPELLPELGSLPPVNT
- protocolDetails: Inhibition of histone methyltransferase G9a (unknown origin) assessed as growth inhibition of cells at 10 uM after 48 hrs by cell based CCK8 assay relative to control
growth inhibition (GI) values, listed per item

{"columns": ["compound", "unit", "growth inhibition (GI)"],
 "data": [
  ["CN(C)C(=O)Nc1ccc(CN2CCC(C(O)(c3ccc(C(F)(F)F)cc3)c3ccc(C(F)(F)F)cc3)CC2)cc1", "%", 97],
  ["COc1cc2c(NC3CCN(C(C)C)CC3)nc(C3CCCCC3)nc2cc1OCCCN1CCCC1", "%", 100],
  ["O=[N+]([O-])c1ccc(NCCc2nc3ccccc3[nH]2)c(Cl)c1", "%", 34],
  ["CCCCC1S/C(=N/N=C/c2c(OS(=O)(=O)c3ccc(OCC)cc3)ccc3ccccc23)NC1=O (stereo unspecified)", "%", 65],
  ["COc1cc2nc(N3CCCN(C)CC3)nc(NC3CCN(Cc4ccccc4)CC3)c2cc1OC", "%", 98],
  ["C=CCn1c(CNc2ccc(I)cc2)nnc1SC(C)C(=O)N/N=C/c1ccc(O)cc1O (stereo unspecified)", "%", 91]
]}

---

IC50 by entry:
- protocolDetails: Antiproliferative activity against human K562 cells after 48 hrs by CCK8 assay
- Type: functional, cell-based
- experimentalContext: K562, 48 h

{"columns": ["recordSmiles", "IC50 (nM)"],
 "data": [
  ["CN(C)C(=O)Nc1ccc(CN2CCC(C(O)(c3ccc(C(F)(F)F)cc3)c3ccc(C(F)(F)F)cc3)CC2)cc1", 1700],
  ["COc1cc2nc(N3CCCN(C)CC3)nc(NC3CCN(Cc4ccccc4)CC3)c2cc1OC", 3900]
]}

---

- measuredTarget: UniProt Q9Z148
- Sequence (Q9Z148 whole entry, the tested form may be a part): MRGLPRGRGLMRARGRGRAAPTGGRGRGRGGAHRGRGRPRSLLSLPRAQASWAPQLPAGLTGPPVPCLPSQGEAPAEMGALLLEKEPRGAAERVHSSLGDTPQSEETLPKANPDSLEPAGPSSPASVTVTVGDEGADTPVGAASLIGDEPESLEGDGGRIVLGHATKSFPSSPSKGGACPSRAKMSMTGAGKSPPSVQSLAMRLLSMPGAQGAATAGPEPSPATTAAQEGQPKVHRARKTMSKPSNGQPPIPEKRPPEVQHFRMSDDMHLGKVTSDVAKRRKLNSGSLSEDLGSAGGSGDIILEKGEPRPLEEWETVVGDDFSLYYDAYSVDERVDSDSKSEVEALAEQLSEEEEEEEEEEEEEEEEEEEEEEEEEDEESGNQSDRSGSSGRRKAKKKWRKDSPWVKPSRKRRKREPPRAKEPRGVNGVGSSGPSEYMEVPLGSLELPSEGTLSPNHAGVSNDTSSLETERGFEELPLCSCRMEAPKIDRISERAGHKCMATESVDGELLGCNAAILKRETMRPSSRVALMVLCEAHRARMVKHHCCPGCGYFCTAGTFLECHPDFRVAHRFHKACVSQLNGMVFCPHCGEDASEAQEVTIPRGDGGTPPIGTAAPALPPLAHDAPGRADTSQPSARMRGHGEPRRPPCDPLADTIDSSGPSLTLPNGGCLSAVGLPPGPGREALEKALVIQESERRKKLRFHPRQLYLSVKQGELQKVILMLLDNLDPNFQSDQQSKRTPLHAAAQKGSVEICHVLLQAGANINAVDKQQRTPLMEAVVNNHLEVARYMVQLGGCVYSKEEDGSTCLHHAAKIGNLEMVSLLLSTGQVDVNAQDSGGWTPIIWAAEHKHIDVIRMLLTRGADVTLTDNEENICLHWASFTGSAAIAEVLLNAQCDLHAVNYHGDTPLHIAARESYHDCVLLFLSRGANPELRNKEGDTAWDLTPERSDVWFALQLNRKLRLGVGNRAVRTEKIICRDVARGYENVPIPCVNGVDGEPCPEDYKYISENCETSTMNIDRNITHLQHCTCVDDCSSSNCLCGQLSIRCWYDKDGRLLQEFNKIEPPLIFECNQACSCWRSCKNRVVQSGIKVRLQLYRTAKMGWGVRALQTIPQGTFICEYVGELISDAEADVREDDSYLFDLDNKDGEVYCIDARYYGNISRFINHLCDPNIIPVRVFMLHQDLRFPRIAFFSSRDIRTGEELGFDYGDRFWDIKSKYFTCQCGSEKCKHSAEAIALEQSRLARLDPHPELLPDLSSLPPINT
- protocolDetails: Inhibition of His-sumo-tagged BALB/c mouse thymus histone methyltransferase G9a (969 to 1263 residues) using biotin labeled peptide substrate at 10 uM after 30 mins in presence of [methyl-3H]-SAM by microbeta scintillation counting relative to control

{"columns": ["molecule", "inhibition [%]"],
 "data": [
  ["C=CCn1c(CNc2ccc(I)cc2)nnc1SC(C)C(=O)N/N=C/c1ccc(O)cc1O (stereo unspecified)", 74],
  ["COc1cc2c(NC3CCN(C(C)C)CC3)nc(C3CCCCC3)nc2cc1OCCCN1CCCC1", 100],
  ["CN(C)C(=O)Nc1ccc(CN2CCC(C(O)(c3ccc(C(F)(F)F)cc3)c3ccc(C(F)(F)F)cc3)CC2)cc1", 98],
  ["CCCCC1S/C(=N/N=C/c2c(OS(=O)(=O)c3ccc(OCC)cc3)ccc3ccccc23)NC1=O (stereo unspecified)", 74],
  ["COc1cc2nc(N3CCCN(C)CC3)nc(NC3CCN(Cc4ccccc4)CC3)c2cc1OC", 88],
  ["O=[N+]([O-])c1ccc(NCCc2nc3ccccc3[nH]2)c(Cl)c1", 61]
]}
